FYI, the data here is from ChEMBL document CHEMBL2169745.

- Test system: Nucleic Acid
- Test method notes: Induction of DNA cleavage in Escherichia coli pBR322 DNA assessed as formation of relaxed circular DNA at 100 uM treated for 1 hr using ethidium bromide staining by agarose gel electrophoresis analysis in presence of UV light
- Assay type: nucleic-acid assay
- Design: scale not given: the % may be the effect or the level left
Decide by Activity: equal to or exceeding 60% means y, less means n.

1) O=C(NO)C(NCc1c2ccccc2cc2ccccc12)c1ccccc1 (stereo not given): y
2) O=C(/C=C/c1c2ccccc2cc2ccccc12)NC(Cc1ccccc1)C(=O)O (stereo not given): n
3) O=C(/C=C/c1c2ccccc2cc2ccccc12)NC(Cc1ccccc1)C(=O)NO (stereo not given): y
4) O=C(NO)C(Cc1ccccc1)NCc1cccc2ccccc12 (stereo not given): n

Query string: Does O=C(/C=C/c1c2ccccc2cc2ccccc12)NC(C(=O)NO)c1ccccc1 (stereo not given) have a reported Activity of at least 60%?
Result string: y

Query string: Does O=C(NO)C(Cc1ccccc1)NCc1c2ccccc2cc2ccccc12 (stereo not given) have a reported Activity of at least 60%?
Result string: y

Query string: Does O=C(NO)C(Cc1c[nH]c2ccccc12)NCc1c2ccccc2cc2ccccc12 (stereo not given) have a reported Activity of at least 60%?
Result string: y

Query string: Does O=C(/C=C/c1cccc2ccccc12)NC(Cc1ccccc1)C(=O)NO (stereo not given) have a reported Activity of at least 60%?
Result string: n

Query string: Does O=C(/C=C/c1c2ccccc2cc2ccccc12)NC(Cc1c[nH]c2ccccc12)C(=O)NO (stereo not given) have a reported Activity of at least 60%?
Result string: y
